The reported measurements were obtained from the supplement of paper PMC12764529.

Assay Protocol: folding stability dG unfold (combined trypsin and chymotrypsin); higher = more stable
Label 1 (yes) for high-side folding stability dG unfold (at or above 1 kcal/mol) and 0 (no) for low-side folding stability dG unfold (below it).

Prompt: Say whether SAGGSAGGSAGGSPKVYVELRFKLPNNLYVEIRYEIDPEKPGYVDWEVRLFDENGNPLGSAGGSAGGSAGGS [r4_297_TrMRF] shows folding stability dG unfold of 1 kcal/mol or more.
Response: 1 (yes)

Prompt: Assess whether reported folding stability dG unfold for SNYINEPIYVPPSVDPEEVKKKVEERVEEIKKKLGLPPNISVSVTPVALPEGSVTYRVTVTVDGETYNSSSA [r9_776_JUSTAS] sits at 1 kcal/mol or higher.
Response: 0 (no)

Prompt: Reported folding stability dG unfold reaches at least 1 kcal/mol for SAGGSAGGSAGGGPMIYTEETVEEVVKVGEKSIKRTVTTTKVEVPGKPGVVLETKVDWGGSAGGSAGGSAGG [r7_795_JUSTAS] ?
Response: 0 (no)
